This collection of values is drawn from paper PMC6919601.

- experimentalSystem: DPAP1 (Plasmodium falciparum)
- assayOverview: primary screen, percent inhibition; higher = more effect of the substance;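 also: 30 min substrate incubation versus DMSO and 10 µM JCP410 controls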
- Parameters: species or system P. falciparum D10 trophozoite lysates; single well
About 230 (0.21%) of roughly 110,000 compounds showed an effect of 50% or more. This is one part of a sample in which strong results are shown more often than they occur.
Here, each record is paired with measured % Inhibition @ 10 uM data.
Use % as the unit, but write only the number.

Study these solved cases before continuing.
Q. Param item = Cc1ccc(C2C(C#N)=C(N)SC(N)=C2C#N)c(C)c1 ; retrieve measured % Inhibition @ 10 uM.
A. 27.4

Q. Param item = CCNc1nc(-c2ccccc2)cs1 ; retrieve measured % Inhibition @ 10 uM.
A. 89.1

Q. Param item = COc1ccc(-n2c3c(c(=O)[nH]c2=O)C(NC(=O)c2ccc(F)cc2)(C(F)(F)F)C(=O)N3)cc1 (stereo not drawn) ; retrieve measured % Inhibition @ 10 uM.
A. 3.57

Q. Param item = CC(C)c1ccc(S(=O)(=O)Nc2ccc3oc(=O)sc3c2)cc1 ; retrieve measured % Inhibition @ 10 uM.
A. 1.13

Q. Param item = CC1C(C#N)=C(N)SC(N)=C1C#N ; retrieve measured % Inhibition @ 10 uM.
A. 67.5

Others:
Q. Param item = Cc1nn(C)c(C)c1/C=C(/C(=O)C(C)C)n1cncn1 ; retrieve measured % Inhibition @ 10 uM.
A. 0.00706

Q. Param item = O=C(Nc1nc(-c2ccc(Br)cc2)cs1)c1ccco1 ; retrieve measured % Inhibition @ 10 uM.
A. -2.99

Q. Param item = CCCNc1nc(-c2ccc(C)cc2)cs1 ; retrieve measured % Inhibition @ 10 uM.
A. 3.33

Q. Param item = COc1ccccc1NC(=O)C1=C(C)N=C2CCCC(O)=C2C1c1ccc(OC)c(OC)c1 (stereo not drawn) ; retrieve measured % Inhibition @ 10 uM.
A. 2.51

Q. Param item = N#CC1=C(N)SC(N)=C(C#N)C1c1cccnc1 ; retrieve measured % Inhibition @ 10 uM.
A. 0.731

Q. Param item = CCC1(C)Cc2c(sc3nc(SC)nc(O)c23)CO1 (stereo not drawn) ; retrieve measured % Inhibition @ 10 uM.
A. 8.9

Q. Param item = O=C(Nc1nccs1)c1ccc(COc2ccccc2Cl)o1 ; retrieve measured % Inhibition @ 10 uM.
A. -5.98

---

- experimentalSystem: DPAP1 (Plasmodium falciparum, UniProt Q8IIJ9)
- Sequence (Q8IIJ9 whole entry, looked up): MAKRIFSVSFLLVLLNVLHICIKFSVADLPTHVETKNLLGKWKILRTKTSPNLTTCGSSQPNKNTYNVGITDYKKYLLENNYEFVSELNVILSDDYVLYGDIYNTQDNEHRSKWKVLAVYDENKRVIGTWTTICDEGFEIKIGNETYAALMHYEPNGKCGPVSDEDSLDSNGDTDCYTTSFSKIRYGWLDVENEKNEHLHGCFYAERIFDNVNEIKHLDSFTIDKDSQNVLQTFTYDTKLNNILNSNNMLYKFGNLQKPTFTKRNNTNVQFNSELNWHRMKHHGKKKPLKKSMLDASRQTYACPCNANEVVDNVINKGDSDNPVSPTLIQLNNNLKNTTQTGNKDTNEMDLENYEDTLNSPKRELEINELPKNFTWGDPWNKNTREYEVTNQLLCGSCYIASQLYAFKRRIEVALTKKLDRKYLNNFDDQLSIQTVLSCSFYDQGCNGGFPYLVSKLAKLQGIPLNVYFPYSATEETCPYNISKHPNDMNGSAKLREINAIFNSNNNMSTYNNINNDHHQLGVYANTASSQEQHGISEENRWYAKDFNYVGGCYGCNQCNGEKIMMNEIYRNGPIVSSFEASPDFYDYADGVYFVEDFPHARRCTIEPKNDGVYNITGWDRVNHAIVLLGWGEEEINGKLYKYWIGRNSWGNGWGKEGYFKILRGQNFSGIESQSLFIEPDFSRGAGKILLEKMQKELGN
- assayOverview: primary screen, percent inhibition; read by cleavage of a fluorogenic dipeptide substrate; higher = more effect of the substance
- Set-up: species or system P. falciparum D10 trophozoite lysates; single well
In all, about 110,000 compounds went through this assay and about 230 (0.21%) showed an effect of 50% or more. This excerpt belongs to a sample that is enriched for strong results.
Here, each record is paired with measured % Inhibition @ 10 uM data.
Use % as the unit, but write only the number.

Study these solved cases before continuing.
Q. Param item = CCC(C(=O)Nc1nc2nc(C)cc(O)n2n1)c1ccccc1 (centres unmarked) ; retrieve measured % Inhibition @ 10 uM.
A. 0.401

Q. Param item = N#CC1=C2SCN(Cc3ccco3)CN2C(=O)CC1c1cccc2ccccc12 (centres unmarked) ; retrieve measured % Inhibition @ 10 uM.
A. 45.5

Q. Param item = N#CC1=C2SCN(Cc3ccccc3)CN2C(=O)CC1c1cccc2ccccc12 (centres unmarked) ; retrieve measured % Inhibition @ 10 uM.
A. 51.5

Q. Param item = N#CC1=C2SCN(C3CCCCC3)CN2C(=O)CC1c1ccccc1F (centres unmarked) ; retrieve measured % Inhibition @ 10 uM.
A. 37.8

// moving on: another record for % Inhibition @ 10 uM
Q. Param item = COc1ccc(N2CCN(C(=O)CN(C)S(=O)(=O)c3ccc(C)cc3)CC2)cc1 ; retrieve measured % Inhibition @ 10 uM.
A. -5.35
